Tested Target: Nuclear receptor subfamily 1 group D member 1 (Homo sapiens)
Experimental Details: modulators of Rev-erb alpha DNA binding, dose response, biochemical, FITC-DNA, fluorescence polarization (AID 1259321)
The source made the active and inactive calls.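 The calls were made as follows: active = half-maximal concentration for changing protein binding to DNA, from the fitted dose curve, below 10 micromolar; inactive = the rest.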
Endpoint: IC50

These solved cases illustrate the format of a correct answer.
# Substance Smiles, Tested Target, Result
measured = [
    ("CCCCCCc1cc2cc(C(=O)Nc3ccccc3)c(=O)oc2cc1O", "Nuclear receptor subfamily 1 group D member 1 (Homo sapiens)", "> 40 µM (inactive)"),
    ("CC(=O)c1ccc(N2CCN(c3ccc4cc(S(=O)(=O)N5CCC(C)CC5)ccc4n3)CC2)cc1", "Nuclear receptor subfamily 1 group D member 1 (Homo sapiens)", "8.62 µM"),
]

Let us move to another entry and its IC50.
Please give the documented IC50 of CC1=Nc2ccccc2/C1=C/c1sc(=S)n(-c2cccc(C(=O)O)c2)c1O
> 40 µM (inactive)

* * *

Tested Target: Nuclear receptor subfamily 1 group D member 1 (Homo sapiens) (UniProt P20393)
Sequence (P20393 whole entry, looked up): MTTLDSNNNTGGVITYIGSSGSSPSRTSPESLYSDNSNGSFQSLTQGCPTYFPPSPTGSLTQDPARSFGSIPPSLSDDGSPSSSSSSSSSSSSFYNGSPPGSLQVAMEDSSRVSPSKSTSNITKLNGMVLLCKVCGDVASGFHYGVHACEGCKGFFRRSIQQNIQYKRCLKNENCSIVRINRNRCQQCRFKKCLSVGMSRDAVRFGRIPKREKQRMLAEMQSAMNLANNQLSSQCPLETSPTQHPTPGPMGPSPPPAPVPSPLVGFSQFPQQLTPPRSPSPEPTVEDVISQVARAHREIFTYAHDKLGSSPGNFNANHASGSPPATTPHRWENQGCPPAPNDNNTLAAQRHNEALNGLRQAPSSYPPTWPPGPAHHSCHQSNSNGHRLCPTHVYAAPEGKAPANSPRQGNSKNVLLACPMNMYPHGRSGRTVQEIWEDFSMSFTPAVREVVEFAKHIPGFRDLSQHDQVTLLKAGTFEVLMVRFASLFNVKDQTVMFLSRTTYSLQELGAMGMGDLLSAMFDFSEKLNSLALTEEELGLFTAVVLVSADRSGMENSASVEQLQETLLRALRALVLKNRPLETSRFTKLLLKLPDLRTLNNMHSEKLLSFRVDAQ
Experimental Details: modulators of Rev-erb alpha DNA binding, dose response, biochemical, FITC-DNA, fluorescence polarization (AID 1259321)
Active and inactive are the calls of the source.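 The calls were made as follows: active = half-maximal concentration for changing protein binding to DNA, from the fitted dose curve, below 10 micromolar; inactive = the rest.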
Outcomes you can answer with include only these: t = active, f = inactive

These recorded examples may help you get a feel for the data.
# Compound, Label Value
records = [
    ("CCC(C)OC(=O)c1cc(C)nc2c(Br)cc(Br)cc12 (stereo not drawn)", "t"),
    ("COc1cc(C(=O)Nc2nnc(-c3sccc3C)s2)cc(OC)c1OC", "t"),
    ("CCc1nc(SCC(=O)NCCc2ccccc2)c2oc3ccccc3c2n1", "t"),
]

Could you kindly confirm the outcome this assay logged for Cc1ccccc1OCC(=O)Nc1cccc2nsnc12 ?
t

Fill in: this test's call for Cc1cccc2cc(C#N)c(SCC(=O)N3CC(=O)Nc4ccccc43)nc12 is ___
f

Hey, what did the test say about Cc1cc(=O)oc2cc(NC(=O)c3cccc(F)c3)ccc12 ?
t

# fetch the recorded call for CCn1c(SCC(=O)c2c[nH]c3ccccc23)nnc1-c1cccs1 here
f

Identify the outcome logged in this assay for the compound shown: COCCn1c(=NC(=O)c2nc3ccccc3s2)sc2cc(S(C)(=O)=O)ccc21
t

Record request — test call for CN1/C(=C\C=C2C(=O)NC(=S)NC2=O)C(C)(C)c2ccccc21
t

* * *

Tested Target: Nuclear receptor subfamily 1 group D member 1 (Homo sapiens) (UniProt P20393)
Experimental Details: modulators of Rev-erb alpha DNA binding, dose response, biochemical, FITC-DNA, fluorescence polarization (AID 1259321)
The source made the active and inactive calls.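 The calls were made as follows: active = half-maximal concentration for changing protein binding to DNA, from the fitted dose curve, below 10 micromolar; inactive = the rest.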
Your response should consist of one outcome taken from active, inactive

# Substance Smiles, Label Value
records = [
    ("Cc1c(-c2ccc(F)cc2)nc(N)c(C#N)c1-c1cccs1", "active"),
    ("CCOc1ccc2cc(C#N)c(SCC(=O)OC)nc2c1", "active"),
    ("COc1ccc(/C=C2/SC(=O)N(CCC(=O)Nc3ccccc3)C2=O)cc1OC", "active"),
    ("Cc1sc2nc(Cc3ccccc3)[nH]c(=O)c2c1-c1ccccc1", "inactive"),
    ("CCCCCn1c(=O)c(C(=O)Nc2ccccc2Cl)c(O)c2ccccc21", "inactive"),
    ("O=C(CCc1c[nH]c2ccccc12)NCCc1ccc(Cl)cc1", "inactive"),
    ("Cc1ccc(S(=O)(=O)c2nnn3c2nc(N2CCN(c4ccccn4)CC2)c2ccccc23)cc1", "active"),
    ("CCN(c1cccc(C)c1)S(=O)(=O)c1cc2c3c(c1)CCC(=O)N3CCC2", "inactive"),
]

# evaluate next
What is the recorded call for this compound in the test? c1ccc2nc(-c3ccc(N4CCOCC4)cc3)ccc2c1
inactive
